Study Target: Somatostatin receptor type 1 (Homo sapiens, UniProt P30872)
Sequence (P30872 whole entry): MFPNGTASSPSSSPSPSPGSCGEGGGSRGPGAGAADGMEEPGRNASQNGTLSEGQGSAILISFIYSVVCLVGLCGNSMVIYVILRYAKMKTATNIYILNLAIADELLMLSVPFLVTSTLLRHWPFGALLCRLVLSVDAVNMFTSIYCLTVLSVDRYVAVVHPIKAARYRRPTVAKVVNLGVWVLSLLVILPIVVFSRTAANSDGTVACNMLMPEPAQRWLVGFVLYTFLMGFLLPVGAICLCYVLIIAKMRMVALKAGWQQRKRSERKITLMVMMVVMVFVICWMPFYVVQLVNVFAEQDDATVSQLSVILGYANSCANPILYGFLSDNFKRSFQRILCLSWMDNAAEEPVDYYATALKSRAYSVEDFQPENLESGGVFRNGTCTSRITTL
Assay Summary: In vitro inhibition of [125I][Leu8,D-Trp22,Tyr25] somatostatin 28 binding to human somatostatin receptor type 1 expressed in CHO-K1 cells; (n=3)
Type: cell-based
Run Parameters: cho-k1
Quantity Measured: IC50

Smiles String: C[C@@H](O)[C@H](NC(=O)[C@@H]1CSSC[C@H](NC(=O)[C@@H](Cc2ccccc2)NC(=O)CCS[C@@H]2O[C@@H](CO)[C@@H](O)[C@H](O)[C@@H]2O)C(=O)N[C@@H](Cc2ccc(O)c(I)c2)C(=O)N[C@H](Cc2c[nH]c3ccccc23)C(=O)N[C@@H](CCCCN)C(=O)N[C@@H]([C@@H](C)O)C(=O)N1)C(=O)O
Quantity Measured: IC50
Observed Result: > 1000 nM

Proceed to the following item.
State its IC50: C[C@@H](O)[C@H](NC(=O)[C@@H]1CSSC[C@H](NC(=O)[C@@H](Cc2ccccc2)NC[C@@]2(O)OC[C@@H](O)[C@@H](O)[C@@H]2O)C(=O)N[C@@H](Cc2ccc(O)c(I)c2)C(=O)N[C@H](Cc2c[nH]c3ccccc23)C(=O)N[C@@H](CCCCN)C(=O)N[C@@H]([C@@H](C)O)C(=O)N1)C(=O)O > 1000 nM
